Tested on: MS2 coat protein
Experiment: apparent KD of MS2 coat protein, switch OFF state (with FMN for OFF switches, without FMN for ON switches); designed switch direction (-1 OFF switch, 1 ON switch): -1; higher = weaker reporter binding
Conditions: FMN input: 0 or 200 uM; Eterna round: R93 (includes R88 designs)
Entries are grouped by apparent KD of MS2 coat protein into these classes: low: < 30 nM; middle: ≥ 30 nM and < 60 nM; high: ≥ 60 nM

{"ordered_residues": "AAAAAACAUGAGGAUCACCCAUGUAAGGAUAUGCAAAAAAAAAAAAUAAAAAAAAAAAGCAGAAGGUACAUAGA [Starry Exclusion 1.7 (wbt round 1 mod)]", "category_label": "middle"}
{"ordered_residues": "GUCGUGUGAGGAUAUGGAAAGAAGAAGAAAAGGUAGAAAAACUAGAAGGCACAUGAGGAUCACCCAUGUAAGAA [JR_Exc004_Sub1709]", "category_label": "low"}

-- ask Class? Entry: "AUAAACAGAGGAUAUACGCAAAUAAAAGAAAAUAAAGAAACACAUGAGGAUCACCCAUGUAGAAGGCUGGAAAA"
-- reply low

-- ask Class? Entry: AAAGAUGGAGGAUAUACAUGAGGAUCACCCAUGUGGAAAAUAAAUUGGGAAAAAGAAAGUAGAAGGCCAAAAAA [Ex 3 May 41]
-- reply high

-- ask Class? Entry: CUCAUGUAAGGAUAUAUAUGAAAUGAAGUGAAAGAAAAGAAAUAGAAGGUACAUGAGGAUCACCCAUGUUAGAA [EteRNA is fun!]
-- reply middle

-- ask Class? Entry: AAAAUGUCAGGAUAUGCGAAGGCGUCUGAUAGACGAGGCUAGCAGAAGGGACAUGAGGAUCACCCAUGUGGAAA [Power strip 63% 2]
-- reply high

-- ask Class? Entry: AUCAUGUUAGGAUAUAAAAGAAAAGAAAAGAAAGAAAAGAAUUAGAAGGAACAUGAGGAUCACCCAUGUAAGAA [EteRNA is fun!]
-- reply low

-- ask Class? Entry: AAAAGGCGAGGAUAUACAUGAGGAUCACCCAUGUAAGUAAGCCUGGCUGAAACUAAAUGUAGAAGGCGCAAAAA [Mat - Exclusion 3 - Neo mod - D73]
-- reply middle

-- ask Class? Entry: AUCGAUCGAGGAUAUACAUGAGGAUCACCCAUGUAAAGCAGAAGAAAGGCCUCAGGAUGUAGAAGGCGACGCAA [JR_Exc003_Sub404]
-- reply middle

-- ask Class? Entry: AAAAAGUCAGGAUAUACAAAAGUGCGAAAGCACAAAAGGAAACAUGAGGAUCACCCAUGUAGAAGGGACAAGAA [Married to this design]
-- reply low
